System: MBP-#γA (5-finger artificial zinc finger protein) (artificial)
Test Details: EMSA
Reported Metric: pKd
Give bare numbers, as −log10 of the molar value.

Query: pKd; subject: GATGCCGTTTGAGGT (double strand) [γ-globin promoter #γA target site]
Reply: 8.49

* * *

Test system: MBP-#γA-opt (5-finger artificial zinc finger protein) (artificial)
Test Details: EMSA
Reported Metric: Kd (nM)
One number for each entry, in nM.

Query: Which Kd value is on record for GATGCCGTTTGAGGT (double strand) [γ-globin promoter #γA target site] ?
Reply: 7.1
